- test.name: inhibition of 3D7 malaria parasite growth – strain 3D7 (AID 2306);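 note: 0% = DMSO wells and 100% = chloroquine plus artemisinin control wells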
- experimental.context: P. falciparum 3D7 erythrocytic growth, LDH absorbance, 72 h; at 2 µM; hits give high values
The source made the active and inactive calls. The rule behind the calls is not given here.
readout.label: growth inhibition

Cc1cc2nc(/N=C(\N)NC(=O)NC3CCCCC3)nc(C)c2cc1C = 94% (active)
NS(=O)(=O)c1cncc(-c2ccc3nccc(-c4cn[nH]c4)c3n2)c1 = 99% (active)
CC(C)NCc1ccc(-c2cccc(NC(=O)c3cccc(C#N)c3)c2)cc1 = 100% (active)
CCOc1cc(NC(=O)Nc2ccnc3ccccc23)cc(OC)c1 = 98% (active)
CCN(CC)CCCCNc1cc(-c2[nH]c(-c3c(Cl)cccc3Cl)nc2-c2ccc3cc(OC)ccc3c2)ccn1 = 95% (active)
CCCC(=O)NC(NC(=S)Nc1ccc([N+](=O)[O-])cc1)C(Cl)(Cl)Cl (configuration not stated) = 93% (active)
CC1CC(NCCCNc2cc(=O)c3ccccc3[nH]2)c2c1cc(Cl)c(Cl)c2Cl (configuration not stated) = 98% (active)
COc1cc([N+](=O)[O-])ccc1NC(=O)c1cc(Cl)ccc1O = 87% (active)
CCNc1cc(C(=O)N[C@@H](Cc2ccccc2)[C@H](O)CNC(C)(C)Cc2cccc(Cl)c2)cc(N2CCCCS2(=O)=O)c1 = 97% (active)
Clc1cc(Cl)cc(Nc2ccnc(Nc3cc(Cl)cc(Cl)c3)n2)c1 = 99% (active)

Query string: Could you share which growth inhibition value was measured for Cc1cccc2[nH]c(-c3cccc(-c4cccc(CNCCN5CCNCC5)c4)c3)nc12 ?
Result string: 90% (active)

Query string: Can you handle CN(C)c1ccc(C2c3nc[nH]c3CCN2C(=O)Nc2cccc([N+](=O)[O-])c2)cc1 (configuration not stated) next?
Result string: 98% (active)

###

- test.name: inhibition of 3D7 malaria parasite growth – strain 3D7 (AID 2306);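 note: 0% = DMSO wells and 100% = chloroquine plus artemisinin control wells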
- experimental.context: P. falciparum 3D7 erythrocytic growth, LDH absorbance, 72 h; at 2 µM; hits give high values
Measured growth inhibition of individual entries
# value in %; strip the unit string

OCCN1CCN(Cc2cccc(-c3cccc(-c4nc5ccc(F)cc5[nH]4)c3)c2)CC1 = 102
Nc1c2nc(-c3c(F)cccc3Cl)[nH]c(=O)c2nc(=O)n1-c1ccccc1 = 95
CCN(CC)CCCN(C(=O)c1cc2c(C)nn(-c3ccccc3)c2s1)c1nc(-c2ccc(OC)cc2)cs1 = 89
CCCc1cc(Cc2cnc(N)nc2N)cc(CCC)c1OCCCCC(=O)OCC = 93
O=S(=O)(NC1CCN(c2ccnc3cc(Cl)ccc23)C1)c1cccs1 (stereo not drawn) = 102
CCCC(=O)Nc1ccc(Nc2nc(C)cc(N3CCCC3)n2)cc1 = 100
COc1ccc2nccc([C@@H](O)CN3CCC(NCc4cc5ccccn5n4)CC3)c2c1 = 99
COc1cc(C2Nc3ccc4ccccc4c3C3=C2C(=O)CC(C)(C)C3)ccc1Oc1ccc([N+](=O)[O-])cc1C#N (stereo not drawn) = 99
N#Cc1ccc(NC(=NCc2ccc(Cl)cc2Cl)Nc2cccc(Cl)c2Cl)c(O)c1 = 97
COc1cccc(Nc2nc(Nc3cccc(C#N)c3)cc(C(F)(F)F)n2)c1 = 99

Query string: Could you share which growth inhibition value was measured for CC(C)c1ccc(S(=O)(=O)Nc2cccc(CCN3CCC(N4CCCCC4)CC3)c2)cc1 ?
Result string: 101

Query string: Can you handle C[C@@H]1CN(c2cnn(Cc3ccc(NC(=O)Nc4ccc(F)cc4[N+](=O)[O-])cc3)c(=O)c2Cl)C[C@H](C)N1 next?
Result string: 89

Query string: Can you handle NC(CC1CC(=O)N1CC(=O)O)C(=O)O (stereo not drawn) next?
Result string: 95

Query string: Can you handle O=C(Nc1ccc(C(=O)Nc2cccc(C3=NCCN3)c2)cc1)Nc1ccc(C2=NCCN2)cc1 next?
Result string: 96

Query string: Can you handle Cc1nc(-c2nc(NCc3ccncc3)ncc2-c2ccsc2)sc1C next?
Result string: 91

Query string: Can you handle Cn1c(=N)n(CC(=O)OCc2ccc(OCc3ccccc3)cc2)c2ccccc21 next?
Result string: 100

Query string: Can you handle COc1cc(F)c2ncc(Cl)c([C@@H](O)CN3CCC(NCc4ccc5c(n4)NC(=O)CO5)CC3)c2c1 next?
Result string: 101

Hey, just so you know, these numbers are from PubChem BioAssay.
